B1: TPR 5TU (parent)
chain: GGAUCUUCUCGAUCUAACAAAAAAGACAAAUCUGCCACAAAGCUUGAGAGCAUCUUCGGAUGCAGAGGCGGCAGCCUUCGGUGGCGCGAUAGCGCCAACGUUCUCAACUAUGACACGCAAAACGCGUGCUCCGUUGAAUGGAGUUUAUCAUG

Variants of: B1
Test: polymerase ribozyme fitness, log enrichment relative to wild type (log ratio); higher = more active; in vitro selection for triplet polymerase activity
This sample holds only a part of the variants without activity.
// not met strictly below -3 in polymerase ribozyme fitness (log ratio); met otherwise

C38G A49U U55A C87A G126A G143C = not met
G25U A52G U56A A60G G133C = not met
A12U C87U = met
A22U A29G C35G U44G C57U C114A = not met
A16G G86U C132U U135G = not met

### Prompt // inclusive: polymerase ribozyme fitness (log ratio) at least -3? input: A17U G25C A29U G48C U53A G70U C93G C129A C131A A150C
### Response not met

### Prompt Decide: is the reported value of polymerase ribozyme fitness (log ratio) for C14G U82A U101G equal to or greater than -3?
### Response met

### Prompt Can U53A U148A be said to have polymerase ribozyme fitness (log ratio) at or above -3?
### Response not met

### Prompt Does the reported polymerase ribozyme fitness (log ratio) for C51A A89C C93U G117U A137U A150C fall at or above the -3 mark?
### Response not met

### Prompt # bool: polymerase ribozyme fitness (log ratio) of C35U G74U G83C A107C G126A U148C >= -3
### Response not met

### Prompt Does polymerase ribozyme fitness (log ratio) meet or surpass -3 for A12U A20G A52U G141A ?
### Response not met

### Prompt hey, is polymerase ribozyme fitness (log ratio) for this one >= -3? A24U U33G U56A A91G C103A
### Response not met

### Prompt Quick check, polymerase ribozyme fitness (log ratio) >= -3? U53A G88U
### Response not met

### Prompt Does polymerase ribozyme fitness (log ratio) meet or surpass -3 for G34A C85A A91C C103G ?
### Response not met

### Prompt Dear colleague, could you confirm whether A49G G117A has polymerase ribozyme fitness (log ratio) at or above -3?
### Response met

All values here come from the RNAGym collection of RNA variant scans (doi:10.1073/pnas.2313332121).
